Hi there, I'd appreciate the recorded Ki for every entry that follows.
molecular target: Sushi domains (SD1/2) protein of GABAB1a (GB1a); experiment: FP competition vs TAMRA AJAP-1probe
Sequence (Q9Z0U4 29-158): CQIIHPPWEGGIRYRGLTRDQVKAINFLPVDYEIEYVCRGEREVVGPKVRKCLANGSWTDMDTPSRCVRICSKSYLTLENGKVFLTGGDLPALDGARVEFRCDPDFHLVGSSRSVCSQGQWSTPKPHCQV
Starred links: 1 amine or outer side, 2 acyl side, 3 side chain; linkers in the order of their positions; H or OH if unused. Non-standard residues stand in square brackets, D forms with d. Tyr(Me) = Omtyr, O-methyl-L-tyrosine, COc1ccc(C[C@H](N[*:1])C(=O)[*:2])cc1; Phe(4-NH2) = Nc1ccc(C[C@H](N)C(=O)O)cc1; Sar = CNCC(=O)O
Give bare numbers, in nM.

{"columns": ["binder", "measured_endpoint", "meas_value"],
 "data": [
  ["Ac-EDDSDVWW[Tyr(Me)]GADTD-NH2 (SMILES COc1ccc(C[C@H](NC(=O)[C@H](Cc2c[nH]c3ccccc23)NC(=O)[C@H](Cc2c[nH]c3ccccc23)NC(=O)[C@@H](NC(=O)[C@H](CC(=O)O)NC(=O)[C@H](CO)NC(=O)[C@H](CC(=O)O)NC(=O)[C@H](CC(=O)O)NC(=O)[C@H](CCC(=O)O)NC(C)=O)C(C)C)C(=O)NCC(=O)N[C@@H](C)C(=O)N[C@@H](CC(=O)O)C(=O)N[C@H](C(=O)N[C@@H](CC(=O)O)C(N)=O)[C@@H](C)O)cc1) [EDDSDVWW(Omtyr)GADTD]", "Ki", 109],
  ["Ac-EDDS[Tyr(Me)]VWWGGADTD-NH2 (SMILES COc1ccc(C[C@H](NC(=O)[C@H](CO)NC(=O)[C@H](CC(=O)O)NC(=O)[C@H](CC(=O)O)NC(=O)[C@H](CCC(=O)O)NC(C)=O)C(=O)N[C@H](C(=O)N[C@@H](Cc2c[nH]c3ccccc23)C(=O)N[C@@H](Cc2c[nH]c3ccccc23)C(=O)NCC(=O)NCC(=O)N[C@@H](C)C(=O)N[C@@H](CC(=O)O)C(=O)N[C@H](C(=O)N[C@@H](CC(=O)O)C(N)=O)[C@@H](C)O)C(C)C)cc1) [EDDS(Omtyr)…]", "Ki", 101],
  ["Ac-EDDSDVWWG[Sar]ADTD-NH2 (SMILES CC(=O)N[C@@H](CCC(=O)O)C(=O)N[C@@H](CC(=O)O)C(=O)N[C@@H](CC(=O)O)C(=O)N[C@@H](CO)C(=O)N[C@@H](CC(=O)O)C(=O)N[C@H](C(=O)N[C@@H](Cc1c[nH]c2ccccc12)C(=O)N[C@@H](Cc1c[nH]c2ccccc12)C(=O)NCC(=O)N(C)CC(=O)N[C@@H](C)C(=O)N[C@@H](CC(=O)O)C(=O)N[C@H](C(=O)N[C@@H](CC(=O)O)C(N)=O)[C@@H](C)O)C(C)C) […(N-Me-G)ADTD]", "Ki", 161],
  ["Ac-EDDSWIDWGPTGDED-NH2 [peptide 29]", "Ki", 5.6],
  ["Ac-EDDS[Phe(4-NH2)]VWWGGADTD-NH2 [EDDS(Aphe)…]", "Ki", 184],
  ["Ac-RRRRRREDDDWIDWYDSDDD-NH2", "Ki", 70.9]
]}

Okay, next one:
### Prompt Return reported Ki; argument: `Ac-ETEFIAWGPTGDEF-NH2`
### Response 48
